assay_explanation: Circular dichroism spectra of peptides
Format: physicochemical
condition: 10° C.; 20 μM peptide in 20 mM potassium phosphate, pH 7.0
Positions of bridges follow the written chain, without caps; N, C: chain ends. No end group written: not given here.
substances and their reported [θ]215

{"substance": "SCTWEGNKLTCK-NH2 (disulfide 2-11 (inferred)) [bhpW with terminal serine and lysine added as a control]", "[θ]215": "−17,400 deg cm^2 dmol^−1"}
{"substance": "Ac-CTWEGNKLTC-NH2 (disulfide 1-10 (inferred)) [bhpW, tryptophan analog of the model β-hairpin peptide bhp]", "[θ]215": "−19,800 deg cm^2 dmol^−1"}
{"substance": "SCGWQGSFLTCK-NH2 (disulfide 2-11 (inferred))", "[θ]215": "−6,100 deg cm^2 dmol^−1"}

Consider now this further substance.
May I ask what [θ]215 has been recorded for Ac-CTWQGSFLTC-NH2 (disulfide 1-10 (inferred)) [cd2, cd1 with substitutions G2T and N3W] ?
−15,800 deg cm^2 dmol^−1

====

compounds and their reported ring closure, dG (kcal/mol relative to X=Leu)
assay_explanation: Thiol-disulfide exchange equilibrium (GSH/GSSG): intramolecular disulfide formation; ddG=-RT ln(Ceff,X/Ceff,Leu), gly-asn turn peptides 1
condition: the molecule shown is the open-chain precursor; 32-membered ring; water, ca. 0.15 M Tris, 1 mM EDTA, pH 8.10, 25 mM total glutathione; 0.375 mM; 20.0 °C; 1.5 h
Please give only the number in your answer, with no unit.

{"query_smiles": "CC(=O)N[C@@H](CS)C(=O)N[C@H](C(=O)N[C@@H](CC(=O)O)C(=O)N[C@@H](CCC(=O)O)C(=O)NCC(=O)N[C@@H](CC(N)=O)C(=O)N[C@@H](CCCCN)C(=O)N[C@@H](CC(C)C)C(=O)N[C@H](C(=O)N[C@@H](CS)C(N)=O)[C@@H](C)O)[C@@H](C)O", "result_value": 0.32}
{"query_smiles": "CC(=O)N[C@@H](CS)C(=O)N[C@H](C(=O)N[C@H](C(=O)N[C@@H](CCC(=O)O)C(=O)NCC(=O)N[C@@H](CC(N)=O)C(=O)N[C@@H](CCCCN)C(=O)N[C@@H](CC(C)C)C(=O)N[C@H](C(=O)N[C@@H](CS)C(N)=O)[C@@H](C)O)[C@@H](C)O)[C@@H](C)O", "result_value": 0.3}
{"query_smiles": "CC(=O)N[C@@H](CS)C(=O)N[C@H](C(=O)N[C@H](C(=O)N[C@@H](CCC(=O)O)C(=O)NCC(=O)N[C@@H](CC(N)=O)C(=O)N[C@@H](CCCCN)C(=O)N[C@@H](CC(C)C)C(=O)N[C@H](C(=O)N[C@@H](CS)C(N)=O)[C@@H](C)O)C(C)C)[C@@H](C)O", "result_value": 0.09}

May I ask what ring closure, dG (kcal/mol relative to X=Leu) has been recorded for CC(=O)N[C@@H](CS)C(=O)N[C@H](C(=O)N[C@@H](CC(C)C)C(=O)N[C@@H](CCC(=O)O)C(=O)NCC(=O)N[C@@H](CC(N)=O)C(=O)N[C@@H](CCCCN)C(=O)N[C@@H](CC(C)C)C(=O)N[C@H](C(=O)N[C@@H](CS)C(N)=O)[C@@H](C)O)[C@@H](C)O ?
0

====

substances and their reported [θ]215
assay_explanation: Circular dichroism spectra of peptides
Type: physicochemical
condition: 10° C.; 20 μM peptide in 20 mM potassium phosphate, pH 7.0
Positions of bridges follow the written chain, without caps; N, C: chain ends. No end group written: not given here.

Worked examples, 2 substances total:
{"substance": "SCGNQGSFLTCK-NH2 (disulfide 2-11 (inferred)) [cd1a]", "[θ]215": "−1,500 deg cm^2 dmol^−1"}
{"substance": "SCTNQGSFLTCK-NH2 (disulfide 2-11 (inferred)) [T2, N3 variant of the CD4 peptide]", "[θ]215": "−5,000 deg cm^2 dmol^−1"}

May I ask what [θ]215 has been recorded for SCTWQGSFLTCK-NH2 (disulfide 2-11 (inferred)) [cd2a] ?
−14,000 deg cm^2 dmol^−1

====

assay_explanation: Thiol-disulfide exchange equilibrium (GSH/GSSG): intramolecular disulfide formation; ddG=-RT ln(Ceff,X/Ceff,Leu), gly-asn turn peptides 1
condition: the molecule shown is the open-chain precursor; 32-membered ring; water, ca. 0.15 M Tris, 1 mM EDTA, pH 8.10, 25 mM total glutathione; 0.375 mM; 20.0 °C; 1.5 h
molecules and their reported ring closure, dG (kcal/mol relative to X=Leu)
Please give only the number in your answer, with no unit.

{"molecule": "CC(=O)N[C@@H](CS)C(=O)N[C@H](C(=O)N[C@@H](Cc1ccc(O)cc1)C(=O)N[C@@H](CCC(=O)O)C(=O)NCC(=O)N[C@@H](CC(N)=O)C(=O)N[C@@H](CCCCN)C(=O)N[C@@H](CC(C)C)C(=O)N[C@H](C(=O)N[C@@H](CS)C(N)=O)[C@@H](C)O)[C@@H](C)O [Ac-CTYEGNKLTC-NH2]", "result_value": -0.08}

Consider now this further molecule.
May I ask what ring closure, dG (kcal/mol relative to X=Leu) has been recorded for CC(=O)N[C@@H](CS)C(=O)N[C@H](C(=O)N[C@@H](Cc1c[nH]c2ccccc12)C(=O)N[C@@H](CCC(=O)O)C(=O)NCC(=O)N[C@@H](CC(N)=O)C(=O)N[C@@H](CCCCN)C(=O)N[C@@H](CC(C)C)C(=O)N[C@H](C(=O)N[C@@H](CS)C(N)=O)[C@@H](C)O)[C@@H](C)O [Ac-CTWEGNKLTC-NH2] ?
-0.53

====

molecules and their reported ring closure, Ceff
assay_explanation: Thiol-disulfide exchange equilibrium (GSH/GSSG redox buffer): intramolecular disulfide formation between two Cys of reduced peptide; Ceff=([pep_ox]/[pep_red])x([GSH]^2/[GSSG]), HPLC after acid quench
condition: the molecule shown is the open-chain precursor; 32-membered ring; water, ca. 0.15 M Tris, 1 mM EDTA, pH 8.10, 25 mM total glutathione; 0.375 mM; 20.0 °C; 1.5 h

Worked examples, 2 molecules total:
{"molecule": "CC(=O)N[C@@H](CS)C(=O)N[C@H](C(=O)N[C@H](C(=O)N[C@@H](CCC(=O)O)C(=O)NCC(=O)N[C@@H](CC(N)=O)C(=O)N[C@@H](CCCCN)C(=O)N[C@@H](CC(C)C)C(=O)N[C@H](C(=O)N[C@@H](CS)C(N)=O)[C@@H](C)O)C(C)C)[C@@H](C)O [Ac-CTVEGNKLTC-NH2]", "ring closure, Ceff": "73 mM"}
{"molecule": "CC(=O)N[C@@H](CS)C(=O)N[C@H](C(=O)N[C@@H](CC(C)C)C(=O)N[C@@H](CCC(=O)O)C(=O)NCC(=O)N[C@@H](CC(N)=O)C(=O)N[C@@H](CCCCN)C(=O)N[C@@H](CC(C)C)C(=O)N[C@H](C(=O)N[C@@H](CS)C(N)=O)[C@@H](C)O)[C@@H](C)O [Ac-CTLEGNKLTC-NH2]", "ring closure, Ceff": "85 mM"}

May I ask what ring closure, Ceff has been recorded for CC(C)C[C@H](NC(=O)[C@H](Cc1ccccc1)NC(=O)[C@H](CO)NC(=O)CNC(=O)[C@H](CCC(N)=O)NC(=O)[C@H](Cc1c[nH]c2ccccc12)NC(=O)[C@@H](NC(=O)[C@H](CS)NC(=O)[C@@H](N)CO)[C@@H](C)O)C(=O)N[C@H](C(=O)N[C@@H](CS)C(=O)N[C@@H](CCCCN)C(N)=O)[C@@H](C)O [H-SCTWQGSFLTCK-NH2] ?
120 mM

May I ask what ring closure, Ceff has been recorded for CC(C)C[C@H](NC(=O)[C@H](Cc1ccccc1)NC(=O)[C@H](CO)NC(=O)CNC(=O)[C@H](CCC(N)=O)NC(=O)[C@H](Cc1c[nH]c2ccccc12)NC(=O)CNC(=O)[C@H](CS)NC(=O)[C@@H](N)CO)C(=O)N[C@H](C(=O)N[C@@H](CS)C(=O)N[C@@H](CCCCN)C(N)=O)[C@@H](C)O [H-SCGWQGSFLTCK-NH2] ?
48 mM

May I ask what ring closure, Ceff has been recorded for CC(=O)N[C@@H](CS)C(=O)N[C@H](C(=O)N[C@@H](Cc1ccc(O)cc1)C(=O)N[C@@H](CCC(=O)O)C(=O)NCC(=O)N[C@@H](CC(N)=O)C(=O)N[C@@H](CCCCN)C(=O)N[C@@H](CC(C)C)C(=O)N[C@H](C(=O)N[C@@H](CS)C(N)=O)[C@@H](C)O)[C@@H](C)O [Ac-CTYEGNKLTC-NH2] ?
98 mM

May I ask what ring closure, Ceff has been recorded for CC(=O)N[C@@H](CS)C(=O)N[C@H](C(=O)N[C@@H](Cc1c[nH]c2ccccc12)C(=O)N[C@@H](CCC(=O)O)C(=O)NCC(=O)N[C@@H](CC(N)=O)C(=O)N[C@@H](CCCCN)C(=O)N[C@@H](CC(C)C)C(=O)N[C@H](C(=O)N[C@@H](CS)C(N)=O)[C@@H](C)O)[C@@H](C)O [Ac-CTWEGNKLTC-NH2] ?
210 mM

May I ask what ring closure, Ceff has been recorded for CC(C)C[C@H](NC(=O)[C@H](CCCCN)NC(=O)[C@H](CC(N)=O)NC(=O)CNC(=O)[C@H](CCC(=O)O)NC(=O)[C@H](Cc1c[nH]c2ccccc12)NC(=O)[C@@H](NC(=O)[C@H](CS)NC(=O)[C@@H](N)CO)[C@@H](C)O)C(=O)N[C@H](C(=O)N[C@@H](CS)C(=O)N[C@@H](CCCCN)C(N)=O)[C@@H](C)O [H-SCTWEGNKLTCK-NH2] ?
273 mM

May I ask what ring closure, Ceff has been recorded for CC(C)C[C@H](NC(=O)[C@H](Cc1ccccc1)NC(=O)[C@H](CO)NC(=O)CNC(=O)[C@H](CCC(N)=O)NC(=O)[C@H](CC(N)=O)NC(=O)CNC(=O)[C@H](CS)NC(=O)[C@@H](N)CO)C(=O)N[C@H](C(=O)N[C@@H](CS)C(=O)N[C@@H](CCCCN)C(N)=O)[C@@H](C)O [H-SCGNQGSFLTCK-NH2] ?
45 mM
